Tested on: AdMSCs
Experiment: RT-qPCR of angiogenic marker mRNA in AIDs-treated AdMSCs
Format: cell-based, human
Conditions: 24 h treatment, relative to untreated AdMSCs, normalized with GAPDH
measurementType: TEK mRNA expression

CC(C(=O)O)c1cccc(C(=O)c2ccccc2)c1 (centres unmarked) [ketoprofen]    up-regulation
Cc1c(N(C)CS(=O)(=O)O)c(=O)n(-c2ccccc2)n1C [metamizole (Analgin™), metamizole]    up-regulation

###

Tested on: AdMSCs
Test: ELISA of secreted inflammatory factors in culture media of AdMSCs
Format: cell-based, human
Conditions: AIDs-treated 24 h, no LPS; control 2.3 ± 0.03
Listed here are molecules together with their documented secreted IL-1RN concentration.
Respond numerically; units are pg/mL and should not be typed.

Use these answered entries as a reference point.
Cc1c(N(C)CS(=O)(=O)O)c(=O)n(-c2ccccc2)n1C    3.9
C[C@]12C=CC(=O)C=C1CC[C@@H]1[C@@H]2[C@@H](O)C[C@@]2(C)[C@H]1CC[C@]2(O)C(=O)CO    7.3
CC(C(=O)O)c1cccc(C(=O)c2ccccc2)c1 (stereo not shown)    0

Asked: Consider the molecule CC(=O)Nc1ccc(O)cc1 tested on AdMSCs; state its secreted IL-1RN concentration.
Given back: 11.0
